This listing pairs binders with measured koff.
Molecular target: T1, human IL-2Rγ (common cytokine receptor γ-chain) (human, UniProt P31785 23-262, limits assumed)
T1 construct: Recombinant protein coated on the plate or immobilised on a CM5 chip; also called hu IL-2R; CD132
T1 sequence: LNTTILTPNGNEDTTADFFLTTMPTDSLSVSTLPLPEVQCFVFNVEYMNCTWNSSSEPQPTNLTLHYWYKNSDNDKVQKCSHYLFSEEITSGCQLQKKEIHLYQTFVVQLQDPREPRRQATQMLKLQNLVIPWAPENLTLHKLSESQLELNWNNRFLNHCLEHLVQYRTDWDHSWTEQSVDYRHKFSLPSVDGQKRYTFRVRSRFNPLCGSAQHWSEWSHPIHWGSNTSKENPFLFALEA
Assay: SPR off-rate ranking, periplasmic extract on immobilised protein
measured attribute: koff (s⁻¹)

| binder | test result |
| --- | --- |
| FJ1427_P035MP04C12 (VHH, VHH in periplasmic extract; also called clone nr) VHH: EVQLVESGGGWVQVGESLRLSCAPSGRTFVSGIMGWFRQAPGKEREFVARIILNNNSTRYIDSVKGRFTISRDSAKNTMYLQMDSLRPEDTAVYYCAARDRYGSGNSLSPSAYDYWGQGTQVTVSS | 0.00732 |
| FJ1427_P035MP04H01 (VHH, VHH in periplasmic extract; also called clone nr) VHH: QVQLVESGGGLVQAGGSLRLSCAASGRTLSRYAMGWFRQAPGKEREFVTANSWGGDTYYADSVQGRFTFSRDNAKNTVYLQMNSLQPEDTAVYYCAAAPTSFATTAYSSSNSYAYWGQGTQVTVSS | 0.00206 |
| FJ1427_P035MP04H05 (VHH, VHH in periplasmic extract; also called clone nr) VHH: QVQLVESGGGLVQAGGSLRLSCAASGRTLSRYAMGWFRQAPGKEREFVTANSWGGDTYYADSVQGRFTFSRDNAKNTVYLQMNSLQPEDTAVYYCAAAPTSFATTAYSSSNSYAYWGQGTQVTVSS | 0.00273 |
| FJ1427_P035MP04F01 (VHH, VHH in periplasmic extract; also called clone nr) VHH: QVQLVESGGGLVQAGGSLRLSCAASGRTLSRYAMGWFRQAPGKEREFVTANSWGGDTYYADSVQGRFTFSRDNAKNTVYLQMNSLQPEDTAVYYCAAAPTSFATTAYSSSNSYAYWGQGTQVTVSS | 0.00268 |
| FJ1427_P035MP04D08 (VHH, VHH in periplasmic extract; also called clone nr) VHH: QVQLVESGGGLVQAGESLRLSCAASGPTASRVAVAWFRQVPGKEREFVAVVNRPGTMTKYADSVKGRFTISRDSAKNTVYLQMNSLKPEDTAVYYCAADSVPYGRPYYFQTSAGNYDYWGQGTQVTVSS | 0.0195 |
| FJ1427_P035MP04H09 (VHH, VHH in periplasmic extract; also called clone nr; 360) VHH: EVQLVESGGGWVQVGESLRLSCAPSGRTFVSGIMGWFRQAPGKEREFVARIILNNNSTRYTDSVKGRFTISRDSAKNTMYLQMNTLRPEDTAVYYCAARDRYGSGNSLSPSAYDYWGQGTQVTVSS | 0.0222 |
| 38-MP07A11 (VHH, VHH in periplasmic extract; also called FJ1427_P035MP07A11; clone nr) VHH: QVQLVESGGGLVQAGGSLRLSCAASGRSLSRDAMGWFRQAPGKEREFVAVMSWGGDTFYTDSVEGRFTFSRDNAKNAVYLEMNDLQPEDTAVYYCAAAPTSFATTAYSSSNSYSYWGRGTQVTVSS | 0.00235 |
| 28-MP04D02 (VHH, VHH in periplasmic extract; also called FJ1427_P035MP04D02; clone nr; 300) VHH: QVQLVESGGGLVQAGGSLRLSCAASGRTLSRYAMGWFRQAPGKEREFVTANSWGGDTYYADSVQGRFTFSRDNAKNTVYLQMNSLQPEDTAVYYCAAAPTSFATTAYSGSNSYAYWGQGTQVTVSS | 0.0088 |
| FJ1427_P035MP04E09 (VHH, VHH in periplasmic extract; also called clone nr) VHH: QVQLVESGGGLVQAGGSLRLSCAASGRTLSRYAMGWFRQAPGKEREFVTANSWGGDTYYADSVQGRSTFSRDNAKNTVYLQMNSLQPEDTAVYYCAAAPTSFATTAYSSSNSYAYWGQGTQVTVSS | 0.00162 |
| FJ1427_P035MP04G10 (VHH, VHH in periplasmic extract; also called clone nr; 367) VHH: QVQLVESGGGWVQVGESLRLSCAPSGRTFVSGIMGWFRQAPGKEREFVARIILNSNSTRYTDSAKGRFTISRDSAKNTMYLQMDSLRPEDTAVYYCAARDRYGSGNSLSPSAYDYWGQGTQVTVSS | 0.0104 |
| 34-MP04A12 (VHH, VHH in periplasmic extract; also called FJ1427_P035MP04A12; clone nr) VHH: QVQLVESGGGLVQAGSSLRLSCAASGRTLSRLAMGWFRQAPGKEREFVAVNSWGGDTFYADSVEGRFTYSRDNAKSAVYLQMNSLQPEDTAVYYCAAAPTSFATTAYSSSNSYAYWGQGAQVTVSS | 0.000333 |
| FJ1427_P035MP04E12 (VHH, VHH in periplasmic extract; also called clone nr) VHH: QLQLVESGGGWVQVGESLRLSCAPSGRTFASGIMGWFRQAPGKEREFVARIILNNNSTRYTDSVKGRFTISRDSAKNTMYLQMNTLRPEDTAVYYCAARDRYGSGNSLSPSAYDYWGQGTQVTVSS | 0.00688 |
| FJ1427_P035MP04B12 (VHH, VHH in periplasmic extract; also called clone nr) VHH: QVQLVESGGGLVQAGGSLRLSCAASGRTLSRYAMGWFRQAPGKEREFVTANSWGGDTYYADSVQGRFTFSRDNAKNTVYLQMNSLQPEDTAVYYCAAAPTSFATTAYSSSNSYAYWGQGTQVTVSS | 0.00344 |
| 32-MP04A08 (VHH, VHH in periplasmic extract; also called FJ1427_P035MP04A08; clone nr) VHH: QVQLVESGGGLVQAGGSLRLSCAASGRTFGSTAVGWFRQVPGKEREFVSAINRSGSATTYADSVKGRFTISRDNAKNTVYLQMNSLTPEDTGVYYCAADSLPYGRPYYFQRSAGEYDYWGQGTQVTVSS | 0.0616 |
| FJ1427_P035MP04D09 (VHH, VHH in periplasmic extract; also called clone nr) VHH: QVQLVESGGGWVQVGESLRLSCAPSGRTFVRGIMGWFRQAPGKEREFVARIILNSNSTRYIDSVKGRFTISRDSAKNTMYLQMNSLRPEDTAVYYCAARDRYGSGNSLSPSAYDYWGQGTQVTVSS | 0.0207 |

Taken from patent US20240409645A1.
